- measured.on: human PD-L1 (Homo sapiens (Human), UniProt Q9NZQ7)
- Sequence (Q9NZQ7 19-290): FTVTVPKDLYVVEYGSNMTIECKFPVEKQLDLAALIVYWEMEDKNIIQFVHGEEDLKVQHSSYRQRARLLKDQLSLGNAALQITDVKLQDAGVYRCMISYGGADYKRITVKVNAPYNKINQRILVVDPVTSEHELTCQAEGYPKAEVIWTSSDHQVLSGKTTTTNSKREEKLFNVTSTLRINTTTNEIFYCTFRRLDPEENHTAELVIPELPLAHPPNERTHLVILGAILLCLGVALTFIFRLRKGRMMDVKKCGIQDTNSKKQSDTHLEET
- test.description: T cell activation luciferase reporter cell culture system (T Cell Activation Assay)
- Type: cell-based
- experimental.context: luciferase reporter assay; PD-L1 aAPC/CHO-K1 cells with PD-1 effector Jurkat T cells
pEC50: −log10 of the molar value.
Everything with pEC50 lower than 7 is not fulfilled; everything else, including exactly 7, is fulfilled.

compound	class.name
COc1nc(-c2cccc(-c3ccnc(-c4ccc5c(c4)S(=O)(=O)CCN(C[C@@H]4CCC(=O)N4)C5)c3Cl)c2Cl)ccc1CNC[C@@H]1CCC(=O)N1 [Example 582]	not fulfilled
COCCC(=O)N1CCC(NCc2ccc(-c3cccc(-c4ccnc(-c5ccc(CN6CC7(C6)CN(C(C)=O)C7)c(OC)c5)c4Cl)c3Cl)nc2OC)CC1 [Example 631]	fulfilled
COc1cc(-c2nccc(-c3cccc(-c4ccc5c(CNC6CCOCC6)cn(C)c5n4)c3Cl)c2Cl)ccc1CNC[C@@H]1CCC(=O)N1 [Cmpd 59]	fulfilled
COc1cc(-c2nccc(-c3cccc(-c4ccc(CNC[C@@H]5CCC(=O)N5)c(OC)n4)c3Cl)c2Cl)ccc1CN1CC2(CNC(=O)C2)C1 [Cmpd 88]	fulfilled
COc1cc(-c2nccc(-c3cccc(-c4ccc(CN5CC6(C5)CN(C(C)=O)C6)c(OC)n4)c3Cl)c2C)ccc1CN1CC2(C1)CN(C(C)=O)C2 [Example 369]	not fulfilled

----------
- measured.on: human PD-L1 (Homo sapiens (Human))
- test.description: T cell activation luciferase reporter cell culture system (T Cell Activation Assay)
- Type: cell-based
- experimental.context: luciferase reporter assay; PD-L1 aAPC/CHO-K1 cells with PD-1 effector Jurkat T cells
pEC50: −log10 of the molar value.

compound	reading.qualifier	pEC50
COc1nc(-c2cccc(-c3ccnc(-c4cc5c(=O)n(C)c(CNC[C@@H]6CCC(=O)N6)nn5c4)c3Cl)c2Cl)ccc1CNC[C@@H]1CCC(=O)N1 [Compound 103]	=	6.52
COc1nc(-c2ccnc(-c3cccc4c3CC[C@@H]4Oc3nc(OC)c(CNC[C@@H](C)O)cc3C(F)(F)F)c2Cl)ccc1CNC[C@@H]1CCC(=O)N1 [Compound 165]	=	8.38
COc1nc(-c2cccc(-c3ccnc(-c4cc(OC)c5nc(CNCC6(O)CC6)nn5c4)c3Cl)c2Cl)ccc1CNC1CCN(C(C)=O)CC1 [Example 699]	=	7.29
COc1nc(-c2cccc(-c3ccnc(-c4ccc5c(c4)S(=O)(=O)CCN(C[C@H](C)O)C5)c3Cl)c2Cl)ccc1CNC[C@@H]1CCC(=O)N1 [Example 611]	≤	5.00
COc1nc(-c2cccc(-c3ccnc(-c4ccc5c(CNCC(C)(C)O)cn(C)c5c4)c3Cl)c2Cl)ccc1CNC[C@@H]1CCC(=O)N1 [Compound 36]	=	7.09
COc1cc(-c2nccc(-c3cccc(-c4ccc(CN5CC6(C5)CN(C(C)=O)C6)c(OC)n4)c3Cl)c2Cl)ccc1CN1CCC(NC(C)=O)CC1 [Example 402]	=	7.35

----------
- measured.on: PD-L1 His protein / PD-1 Fc protein (Homo sapiens (Human))
- Sequence (Q9NZQ7 19-238): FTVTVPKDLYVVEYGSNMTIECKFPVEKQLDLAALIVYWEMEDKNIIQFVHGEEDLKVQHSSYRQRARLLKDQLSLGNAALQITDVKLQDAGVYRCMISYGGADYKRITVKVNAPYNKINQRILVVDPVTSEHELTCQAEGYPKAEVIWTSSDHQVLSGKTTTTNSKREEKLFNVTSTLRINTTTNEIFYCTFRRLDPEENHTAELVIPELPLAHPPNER
- test.description: HTRF Assay (PD-1/PD-L1 interaction)
- Format: binding
- experimental.context: PD-L1 His 6 nM, PD-1 Fc 6 nM
pIC50: −log10 of the molar value.
value.kind: pIC50

structure.smiles	measured.on	assay.result
COc1nc(-c2cccc(-c3nccc(-c4ccc(CN5CC6(CNC(=O)C6)C5)c(OC)n4)c3Cl)c2Cl)ccc1CNC1CCN(C(C)=O)CC1	PD-L1 His protein / PD-1 Fc protein (Homo sapiens (Human))	10.52
COc1nc(-c2cccc(-c3ccnc(-c4cc(OC)c5nc(CN6CC7(CNC(=O)C7)C6)cn5c4)c3Cl)c2Cl)ccc1CNC[C@@H]1CCC(=O)N1	PD-L1 His protein / PD-1 Fc protein (Homo sapiens (Human))	8.79
COc1nc(-c2cccc(-c3nccc(-c4ccc(CN5CC6(CNC(=O)C6)C5)c(OC)n4)c3Cl)c2Cl)ccc1CN1CC2(CNC(=O)C2)C1	PD-L1 His protein / PD-1 Fc protein (Homo sapiens (Human))	9.77
COc1cc(-c2nccc(-c3cccc(-c4ccc(CNC56CC(CO)(C5)C6)c(OC)n4)c3Cl)c2Cl)ccc1CNC12CC(CO)(C1)C2	PD-L1 His protein / PD-1 Fc protein (Homo sapiens (Human))	7.61
COc1nc(-c2cccc(-c3ccnc(-c4cc(OC)c5nc(CNC6CCN(C(C)=O)CC6)cn5c4)c3Cl)c2Cl)ccc1CNC[C@@H]1CCC(=O)N1	PD-L1 His protein / PD-1 Fc protein (Homo sapiens (Human))	8.75
COc1cc(-c2nccc(-c3cccc(-c4cc5c(cn4)C(=O)N(CCNC[C@@H]4CCC(=O)N4)C5)c3Cl)c2Cl)ccc1CNC[C@@H]1CCC(=O)N1	PD-L1 His protein / PD-1 Fc protein (Homo sapiens (Human))	8.52
